Assay: Initial solubility assessment in solvents useful in making vaginal devices
Assay type: physicochemical
Conditions: organic solvent or mixture, PEG 400
observable: solubility

Give a short answer stating reported solubility for CCC[C@@H](c1ccc(C(F)(F)F)cc1)N1CCN(C2(C)CCN(C(=O)c3c(C)ncnc3C)CC2)C[C@@H]1C [Compound 28A] .
≥ 39 mg/mL

---

Experiment: Initial solubility assessment in solvents useful in making vaginal devices
Type: physicochemical
Conditions: water, DI H20
Source text: Initial solubility assessments were made of Compounds 28A, 23 and 5L to evaluate compatibility in various solvents useful in making vaginal devices.
observable: solubility

# return recorded solubility for input CCC[C@@H](c1ccc(C(F)(F)F)cc1)N1CCN(C2(C)CCN(C(=O)c3c(C)ncnc3C)CC2)C[C@@H]1C [Compound 28A]
≥ 3850 µg/mL

---

Assay: Initial solubility assessment in solvents useful in making vaginal devices
Format: physicochemical
Conditions: organic solvent or mixture, PG (propyleneglycol)
observable: solubility

Name the recorded solubility of the item CCC[C@@H](c1ccc(C(F)(F)F)cc1)N1CCN(C2(C)CCN(C(=O)c3c(C)ncnc3C)CC2)C[C@@H]1C [Compound 28A] in your answer.
≥ 38.4 mg/mL
